experimentSummary: chemical genetic growth profiling, strain panel (AID 1159580);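 further: tested at 20 µM; growth read once vehicle control cultures reached saturation at 30 °C; 1 = growth at the plate median or of vehicle wells; lower values mean less growth of the strain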
reportedConditions: S. cerevisiae deletion strains, growth OD, locus YJL128C, strain PBS2, stronger effect = lower value
Out of some 5,500 compounds screened, about 2,000 (36%) were called active. Not shown: some 18% with an inconclusive outcome. This is one part of the list.
endpoint: normalized growth
Write the value as a bare number.

Past entries and their recorded results:
compound: CC(C)c1ccc(COC(=O)Nc2ccc(CSc3ccc(Cl)cc3)o2)cc1
normalized growth: 0.954

compound: CCCN(CCC)C(=S)NC(=O)c1cccc([N+](=O)[O-])c1
normalized growth: 0.952

compound: O=C(ON=C1CCCCC1)c1ccc([N+](=O)[O-])cc1
normalized growth: 0.981

compound: O=[N+]([O-])c1ccc(ON=C2CCCCC2)c([N+](=O)[O-])c1
normalized growth: 0.995

compound: Cc1cc(C(=O)NNS(=O)(=O)c2ccc(F)c(Cl)c2)nn1-c1c(Cl)cc(Cl)cc1Cl
normalized growth: 0.905

compound: O=C(NCc1ccc(Cl)c(Cl)c1)c1cccnc1OCC(F)(F)F
normalized growth: 0.9

Please look at the following compound next.
stdin: // lookup normalized growth for CCOC(=O)C1C(c2c(F)cccc2Cl)C(C(=O)OCC)C(O)(C(F)(F)F)NC1(O)C(F)(F)F (configuration not stated)
stdout: 0.965

----------
Catalogue of normalized growth readings, one per entry.
experimentSummary: chemical genetic growth profiling, strain panel (AID 1159580);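 further: tested at 20 µM; growth read once vehicle control cultures reached saturation at 30 °C; 1 = growth at the plate median or of vehicle wells; lower values mean less growth of the strain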
reportedConditions: S. cerevisiae deletion strains, growth OD, locus YCL061C, strain MRC1, stronger effect = lower value
In all, about 5,500 compounds went through this assay and about 2,000 (36%) were called active. About 18% were inconclusive and are not listed. The list shows a part of the results.
Could you keep your reply to the number by itself?

compound: Cc1nc(N)ncc1Sc1ccccc1
recordedValue: 0.963
--
compound: CCC(C)C(=O)O[C@@H]1C[C@@]2(C)[C@H](c3ccoc3)OC(=O)CC23OC2(C)OC34[C@H](OC(=O)C(C)C)[C@@]3(O)[C@@H](OC(=O)C5(C)OC5C)[C@@]5(C)C[C@]3(O)[C@@](C)([C@H]5CC(=O)OC)C14O2 (stereo partly drawn)
recordedValue: 1
--
compound: C=CCc1ccc(O)c(OC)c1
recordedValue: 1.01
--
compound: CC[C@]1(O)CC2CN(CCc3c([nH]c4ccccc34)[C@@](C(=O)OC)(c3cc4c(cc3OC)N(C)[C@H]3[C@@](O)(C(=O)OC)[C@H](OC(C)=O)[C@]5(CC)C=CCN6CC[C@]43[C@@H]65)C2)C1 (stereo partly drawn)
recordedValue: 1.02

stdin: Name the reported normalized growth value associated with the compound C[C@]12CCC(=O)C=C1C=CC1C2CC[C@@]2(C)C1CC[C@@]21CCC(=O)O1 (stereo partly drawn)
stdout: 0.954

stdin: Given the compound C=CC[C@]1(O)CCC2C3CCC4=CC(=O)CCC4=C3C=C[C@@]21C (stereo partly drawn) , what is its reported normalized growth?
stdout: 0.998

stdin: Any idea what normalized growth was measured for Cc1ccc(-c2csc(CC#N)n2)cc1C ?
stdout: 0.912

stdin: Data request, read-out normalized growth, for CN1C2CCC1CC(OC(c1ccccc1)c1ccccc1N)C2 (stereo not drawn)
stdout: 0.997

----------
experimentSummary: chemical genetic growth profiling, strain panel (AID 1159580);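 further: tested at 20 µM; growth read once vehicle control cultures reached saturation at 30 °C; 1 = growth at the plate median or of vehicle wells; lower values mean less growth of the strain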
reportedConditions: S. cerevisiae deletion strains, growth OD, locus YLR342W, strain FKS1, stronger effect = lower value
Among all 5,500 compounds or so, about 2,000 (36%) were called active. Roughly 18% stayed inconclusive and do not appear here. The list shows a part of the results.
endpoint: normalized growth
# print the numeric value only

compound: Nc1ncn[nH]1
recordedValue: 1.01
--
compound: CN1CC(=O)N=C1N
recordedValue: 1.03
--
compound: C#CCCCCCCCCCCCc1ccco1
recordedValue: 0.989

stdin: For the compound shown here, CC(=O)O[C@H]1C[C@@H](OC(C)=O)C(C)(C)C2CC(=O)[C@]3(C)C(CC[C@@]4(C)[C@H](C(=O)O)OC(=O)C5OC543)[C@]21C (stereo not given in full) , give the reported normalized growth.
stdout: 1.01

stdin: May I ask what normalized growth has been recorded for O=C(O)CCCc1ccc(N(CCCl)CCCl)cc1 ?
stdout: 0.99

stdin: Looking for the measured normalized growth of COC(=O)C1=COC(OC2OC(CO)C(O)C(O)C2O)C2C(C)CC(=O)C12 (stereo not given) , can you help?
stdout: 1.03

stdin: // normalized growth lookup, key: CC[C@@]1(O)C[C@H](O)c2c(cc3c(c2O)C(=O)c2c(O)ccc(O)c2C3=O)[C@H]1C(=O)OC
stdout: 0.958

stdin: Endpoint output: normalized growth of COc1ccc(OC)c(C(O)CNC(=O)CN)c1 (stereo not given) . Value?
stdout: 1.01

stdin: Consider the compound shown here: C[n+]1c2cc(N)ccc2cc2ccc(N)cc21 What is its recorded normalized growth?
stdout: 0.752

stdin: Item CC[C@@]1(O)C[C@H](O[C@H]2C[C@H](N(C)C)[C@H](O)[C@H](C)O2)c2c(cc3c(c2O)C(=O)c2c(O)cccc2C3=O)[C@H]1C(=O)OC has what recorded normalized growth?
stdout: 0.862

// data source = PubChem BioAssay AID1159580
